Field: pIC50. System: human PDE10A2 (Homo sapiens (Human)). Provenance: assorted publications.
pIC50: −log10 of the molar value.
Entry flag: 1 if pIC50 reaches 9; -1 if it does not.

Molecule	Cat
Cn1ncc(-c2ccncc2)c1-c1ccc(OCc2cn3ccccc3n2)cc1	1
CC(C)(O)CNC(=O)c1ncccc1NC(=O)c1nc(C2CC2)cnc1Nc1cncnc1	1
Cc1cc(C)n2cc(CCc3nc(-c4cncs4)cn3CC(O)c3ccc(Cl)cc3)nc2n1 (stereo not drawn)	-1
Cc1cc(C)n2cc(CCc3nc(-c4cccs4)cn3C3CCCC3)nc2n1	-1
Cc1c(-c2ccc(-c3ccccc3CN3CCOCC3)cc2)nc2ccc(F)cc2c1C(=O)O	-1
Nc1nccn2c([C@H]3[C@@H]4CCC[C@@H]43)nnc12	-1
